# assayed-target: p38a activated, mitogen-activated protein kinase-activated protein kinase 2 (MAPKAP-K2 or MK-2) enzyme (Homo sapiens (Human))
# method-notes: MK2 Omnia continuous-read kinase assay for compound potency
# test-parameters: [MK-2]=0.4 nM, [ATP]=1.0 mM, [ST3-Sox]=10 μM
property-measured: IC50

[[record]]
molecule = "C=CC(=O)Nc1cc(C(=O)Nc2cc(-c3cc4c([nH]3)C3(CCCNC3)CNC4=O)ccn2)ccc1F (racemic)"
property_measured = "IC50"
result = "101 to 500 nM"

[[record]]
molecule = "C=CC(=O)Nc1cc(-c2nccc(-c3cc4n(c3)CCNC4=O)n2)ccc1OC"
property_measured = "IC50"
result = "< 100 nM"

[[record]]
molecule = "C=CC(=O)N1C[C@@H](C)Oc2ccc(NC(=O)c3ccc4sc5c(c4c3)NC[C@@H](C)NC5=O)cc21"
property_measured = "IC50"
result = "< 100 nM"

[[record]]
molecule = "CN(C)C/C=C/C(=O)N1CCOc2ccc(NC(=O)c3ccc4cc5n(c4c3)CCNC5=O)cc21"
property_measured = "IC50"
result = "> 1000 nM"

[[record]]
molecule = "C=CC(=O)Nc1ncccc1NC(=O)c1ccc2cc3n(c2c1)C1(CCC1)CNC3=O"
property_measured = "IC50"
result = "< 100 nM"


Please fill in: IC50 reported for C=CC(=O)N1CCOc2ncc(-c3ncc4c(n3)-c3[nH]c5c(c3CC4)C(=O)NCC5)cc21 = < 100 nM

Please fill in: IC50 reported for C=CC(=O)Nc1cc(NC(=O)c2ccc3sc4c(c3c2)NC[C@@H](C)NC4=O)ccc1N1CCNCC1 = < 100 nM

Please fill in: IC50 reported for C=CC(=O)Nc1c(C)ccc2oc(-c3ccc4cc5n(c4c3)C3(CCC3)CNC5=O)nc12 = > 1000 nM

* * *

# assayed-target: UniProt:P49137
# method-notes: MK2 cellular assay (Hsp27 phosphorylation in Thp-1 cells)
# test-parameters: differentiated Thp-1 cells, compound 1 hour, 50 ng/ml LPS 15 minutes, phosphorylation of Hsp27; read-out: MK2EC50
pEC50: −log10 of the molar value.
property-measured: pEC50

[[record]]
compound = "C=CC(=O)N1CCOc2ccc(-c3cc4c(ccc5c6c([nH]c54)CCC6=O)cn3)cc21"
result = "< 6.00"


Please fill in: pEC50 reported for C=CC(=O)Nc1cc(NC(=O)c2ccc3cc4n(c3c2)C2(CCC2)CNC4=O)ccc1F = 6.30 to 7.00

Please fill in: pEC50 reported for C=CC(=O)Nc1cc(Cl)cc2oc(-c3ccc4cc5n(c4c3)C3(CCC3)CNC5=O)nc12 = 6.30 to 7.00

Please fill in: pEC50 reported for C=CC(=O)Nc1cc(-c2cc3c(ccc4c5c(n(C)c43)CCC5=O)cn2)cnc1OC = < 6.00

Please fill in: pEC50 reported for C=CC(=O)Nc1cc(-c2ccc3c(ccc4sc5c(c43)NC[C@@H](C)NC5=O)n2)ccc1Cl = 6.30 to 7.00

* * *

The following compounds are listed with their measured IC50 values.
# assayed-target: p38a activated, mitogen-activated protein kinase-activated protein kinase 2 (MAPKAP-K2 or MK-2) enzyme (Homo sapiens (Human), UniProt P49137)
# Sequence (P49137 whole entry): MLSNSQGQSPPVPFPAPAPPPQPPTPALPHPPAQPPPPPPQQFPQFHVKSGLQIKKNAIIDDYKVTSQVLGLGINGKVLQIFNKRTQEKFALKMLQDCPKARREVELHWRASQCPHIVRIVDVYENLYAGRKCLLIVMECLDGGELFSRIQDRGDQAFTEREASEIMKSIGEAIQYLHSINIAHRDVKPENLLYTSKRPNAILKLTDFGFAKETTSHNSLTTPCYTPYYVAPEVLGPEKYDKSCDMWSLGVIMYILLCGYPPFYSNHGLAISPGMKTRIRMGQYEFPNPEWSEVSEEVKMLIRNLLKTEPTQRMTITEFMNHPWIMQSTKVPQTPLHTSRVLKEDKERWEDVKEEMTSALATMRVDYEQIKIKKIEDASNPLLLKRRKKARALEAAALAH
# method-notes: MK2 Omnia continuous-read kinase assay for compound potency
# test-parameters: [MK-2]=0.4 nM, [ATP]=1.0 mM, [ST3-Sox]=10 μM

[[record]]
compound = "C=CC(=O)Nc1cc(-c2cc(-c3cc4c([nH]3)C3(CCCNC3)CNC4=O)ccn2)ccc1F (stereo not drawn)"
property_measured = "IC50"
result = "< 100 nM"

[[record]]
compound = "C=CC(=O)Nc1cc(NC(=O)c2ccc3sc4c(c3c2)NC[C@@H](C)NC4=O)ccc1N1CCN(C)CC1"
property_measured = "IC50"
result = "< 100 nM"


Next up:
Please fill in: IC50 reported for C=CC(=O)Nc1cc(NC(=O)c2ccc3cc4n(c3c2)C2(CCC2)CNC4=O)ccc1C = > 1000 nM

Reference source for all entries: patent US11098061B2
